molecular target: CDK2 complexed with cyclin A (Homo sapiens); experiment: Cyclin dependent kinase activity assay (33P peptide phosphorylation); conditions: 0.1 mM ATP, read-out: CDK 2 Activity*
pIC50: −log10 of the molar value.
Attribute: pIC50
Quantity Name: pIC50

NC(=S)N/N=C/c1cc(-c2ccc(CO)cc2)ccc1O
5.30 to 5.70
NC(=O)/C=C/c1ccc(O)c(/C=N/NC(N)=S)c1
5.70 to 6.30

====

Attribute: IC50
Target: CDK5 complexed with p25 (Homo sapiens, UniProt Q00535)
Sequence (Q00535 whole entry): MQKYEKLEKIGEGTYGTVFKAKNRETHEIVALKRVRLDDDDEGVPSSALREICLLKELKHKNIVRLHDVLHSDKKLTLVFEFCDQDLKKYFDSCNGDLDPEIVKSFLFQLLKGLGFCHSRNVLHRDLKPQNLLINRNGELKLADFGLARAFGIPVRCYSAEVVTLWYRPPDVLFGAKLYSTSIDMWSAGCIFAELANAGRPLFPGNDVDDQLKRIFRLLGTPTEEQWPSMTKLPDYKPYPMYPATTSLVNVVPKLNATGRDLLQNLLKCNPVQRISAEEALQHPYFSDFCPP
Sequence (Q15078 99-307 partner limits assumed): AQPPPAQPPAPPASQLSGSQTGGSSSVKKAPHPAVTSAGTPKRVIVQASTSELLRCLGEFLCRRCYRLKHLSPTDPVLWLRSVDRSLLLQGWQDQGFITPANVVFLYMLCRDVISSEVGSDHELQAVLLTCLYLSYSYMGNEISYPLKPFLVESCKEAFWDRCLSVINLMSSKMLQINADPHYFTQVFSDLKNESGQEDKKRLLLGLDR
Assay: Cyclin dependent kinase activity assay (33P peptide phosphorylation)
Settings: 0.1 mM ATP, read-out: CDK 5 Activity*
Procedure: The assay of cyclin dependent kinase activity was determined by monitoring the phosphorylation of a synthetic peptide, PKTPKKAKKLRRR. The assay mixture contained 0.1 mM cold ATP, ^33P-γ-ATP (2000-4000 cpm/μL), 0.1 mM peptide, 1 mM DDt, and 10 mM MgCl2 in 100 mM HEPES buffer pH 7.4. […] After addition of scintillation fluid to the sealed plate, phosphorylated peptide was quantified in a scintillation counter.
Quantity Name: IC50

NC(=S)N/N=C/c1cc(-c2ccc(CO)cc2)ccc1O
0.5 to 2 µM
NC(=O)/C=C/c1ccc(O)c(/C=N/NC(N)=S)c1
> 5 µM
Nc1nc(-c2cc(-c3ccc(O)cc3)ccc2O)cc(N2CCCC2CO)n1 (stereo in doubt)
< 0.5 µM

The measured values listed here are drawn from patent US20030208067A1.
